target_under_test: A₂ receptor (Rattus norvegicus)
Construct: from tissue; host or cells: rat corpus striatum membrane preparation
Sequence (P30543 whole entry): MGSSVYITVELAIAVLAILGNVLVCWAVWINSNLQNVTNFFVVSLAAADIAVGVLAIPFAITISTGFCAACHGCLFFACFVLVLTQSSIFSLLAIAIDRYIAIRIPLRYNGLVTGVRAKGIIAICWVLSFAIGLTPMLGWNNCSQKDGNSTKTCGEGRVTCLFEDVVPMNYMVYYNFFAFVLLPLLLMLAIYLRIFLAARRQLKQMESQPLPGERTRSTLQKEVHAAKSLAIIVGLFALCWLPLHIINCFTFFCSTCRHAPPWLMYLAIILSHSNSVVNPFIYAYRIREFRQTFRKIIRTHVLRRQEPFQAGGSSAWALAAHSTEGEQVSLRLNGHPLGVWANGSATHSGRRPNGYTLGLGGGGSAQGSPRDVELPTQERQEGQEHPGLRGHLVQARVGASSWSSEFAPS
experiment: Adenosine A₂ receptor binding test (³H-NECA binding)
run_conditions: read-out: Inhibition (%) A₂ Receptor
Reported inhibition at 1 µM by item:
Dear colleague, please return just the value in %, with no unit written.

The cases that follow already have their inhibition at 1 µM on record.
compound=CCn1c(=O)c2[nH]c(/C=C/c3ccc4c(c3)OCCO4)nc2n(CC)c1=O observation_type="inhibition at 1 µM" measured_result=69
compound=CCn1c(=O)c2[nH]c(/C=C/c3ccc(OC)c(C)c3C)nc2n(CC)c1=O observation_type="inhibition at 1 µM" measured_result=84
compound=CCn1c(=O)c2[nH]c(/C=C/c3ccc(OC)c(OC)c3OC)nc2n(CC)c1=O observation_type="inhibition at 1 µM" measured_result=88

Attention now turns to another entry.
// field: inhibition at 1 µM; key: COc1ccc(/C=C/c2nc3c(c(=O)n(C)c(=O)n3C)n2C)c(OC)c1OC [Compound 20, (E)-8-(2,3,4-Trimethoxystyryl)caffeine] ; value = 83
